Where do the numbers come from? From ChEMBL document CHEMBL4311936.

Protocol description: Binding affinity to human IgG assessed as dissociation constant by SPR analysis
Bridge positions count the residues as written; N and C are the ends. Square brackets hold non-standard residues; d marks the D form. Peptide text beside a SMILES is read from it. ξ: configuration not given here. ξCha = NC(CC1CCCCC1)C(=O)O
Observed property: Kd (nM)
All answers are understood in nM, so give the number only.

Some entries whose results are on file:
// query Request the reported Kd associated with CC(=O)N[C@@H](CC(=O)O)C(=O)N[C@H]1CSSC[C@@H](C(=O)N[C@H](C(=O)N[C@@H](Cc2ccccc2)C(=O)NC(Cc2ccccn2)C(N)=O)[C@@H](C)O)NC(=O)[C@H](Cc2c[nH]c3ccccc23)NC(=O)[C@H](C(C)C)NC(=O)[C@H](CC(C)C)NC(=O)[C@H](CCC(=O)O)NC(=O)CNC(=O)[C@H](CCCCN)NC(=O)[C@H](Cc2cnc[nH]2)NC(=O)[C@H](Cc2ccc(O)cc2)NC(=O)[C@H](C)NC1=O (mixture of isomers)
// result 75.7

// query Request the reported Kd associated with CC(=O)N[C@@H](CC(=O)O)C(=O)N[C@H]1CSSC[C@@H](C(=O)N[C@H](C(=O)N[C@@H](Cc2ccccc2)C(=O)NC(CC2CCCCC2)C(N)=O)[C@@H](C)O)NC(=O)[C@H](Cc2c[nH]c3ccccc23)NC(=O)[C@H](C(C)C)NC(=O)[C@H](CC(C)C)NC(=O)[C@H](CCC(=O)O)NC(=O)CNC(=O)[C@H](CCCCN)NC(=O)[C@H](Cc2cnc[nH]2)NC(=O)[C@H](Cc2ccc(O)cc2)NC(=O)[C@H](C)NC1=O (stereo partly drawn) (Ac-DCAYHKGELVWCTF[ξCha]-NH2; disulfide 2-12)
// result 165

# evaluate next
// query Request the reported Kd associated with CC(=O)N[C@@H](CC(=O)O)C(=O)N[C@H]1CSSC[C@@H](C(=O)N[C@H](C(=O)N[C@@H](Cc2ccccc2)C(=O)NC(Cc2ccccn2)C(N)=O)[C@@H](C)O)NC(=O)[C@H](Cc2c[nH]c3ccccc23)NC(=O)[C@H](C(C)C)NC(=O)[C@H](CC(C)C)NC(=O)[C@H](CCC(=O)O)NC(=O)CNC(=O)[C@H](CC(C)C)NC(=O)[C@H](Cc2cnc[nH]2)NC(=O)[C@H](Cc2ccc(O)cc2)NC(=O)[C@H](C)NC1=O (mixture of isomers)
// result 2.19
